Assay: Antimicrobial activity against Leptospira interrogans serovar Icterohaemorrhagiae isolate 9 by broth microdilution method
Format: functional
Details: Leptospira interrogans, isolate 9; read-out: MIC
Reported MIC values follow for various compounds
readout.name: MIC (µg/mL)

[[record]]
structure_as_smiles = "C[C@H]1COc2c(N3CCN(C)CC3)c(F)cc3c(=O)c(C(=O)O)cn1c23.C[C@H]1COc2c(N3CCN(C)CC3)c(F)cc3c(=O)c(C(=O)O)cn1c23.O"
qualifying_sign = "="
result = 0.125

[[record]]
structure_as_smiles = "CC1(C)S[C@@H]2[C@H](NC(=O)[C@H](N)c3ccccc3)C(=O)N2[C@H]1C(=O)O"
qualifying_sign = "<"
result = 0.016

[[record]]
structure_as_smiles = "O=C(O)c1cn(C2CC2)c2cc(N3CCNCC3)c(F)cc2c1=O"
qualifying_sign = "="
result = 0.125

[[record]]
structure_as_smiles = "CC[C@H]1OC(=O)[C@H](C)[C@@H](O[C@H]2C[C@@](C)(OC)[C@@H](O)[C@H](C)O2)[C@H](C)[C@@H](O[C@@H]2O[C@H](C)C[C@H](N(C)C)[C@H]2O)[C@](C)(O)C[C@@H](C)CN(C)[C@H](C)[C@@H](O)[C@]1(C)O"
qualifying_sign = "<"
result = 0.016


* * *

Reported MIC values follow for various molecules
Assay: Antimicrobial activity against Leptospira interrogans serovar Bataviae isolate 1 by broth microdilution method
Format: functional
Settings: Leptospira interrogans, isolate 1; read-out: MIC
readout.name: MIC

[[record]]
structure_as_smiles = "CO/N=C(\\C(=O)N[C@@H]1C(=O)N2C(C(=O)O)=C(COC(C)=O)CS[C@H]12)c1csc(N)n1"
readout_name = "MIC"
result = "< 0.016 µg/mL"

[[record]]
structure_as_smiles = "CN(C)[C@@H]1C(O)=C(C(N)=O)C(=O)[C@@]2(O)C(O)=C3C(=O)c4c(O)cccc4[C@@](C)(O)[C@H]3C[C@@H]12"
readout_name = "MIC"
result = "1 µg/mL"

[[record]]
structure_as_smiles = "C[C@H]1c2cccc(O)c2C(=O)C2=C(O)[C@]3(O)C(=O)C(C(N)=O)=C(O)[C@@H](N(C)C)[C@@H]3[C@@H](O)[C@@H]21.O"
readout_name = "MIC"
result = "1 µg/mL"

[[record]]
structure_as_smiles = "O=C(O)c1cn(C2CC2)c2cc(N3CCNCC3)c(F)cc2c1=O"
readout_name = "MIC"
result = "0.125 µg/mL"

[[record]]
structure_as_smiles = "CC[C@H]1OC(=O)[C@H](C)[C@@H](O[C@H]2C[C@@](C)(OC)[C@@H](O)[C@H](C)O2)[C@H](C)[C@@H](O[C@@H]2O[C@H](C)C[C@H](N(C)C)[C@H]2O)[C@](C)(OC)C[C@@H](C)C(=O)[C@H](C)[C@@H](O)[C@]1(C)O"
readout_name = "MIC"
result = "< 0.016 µg/mL"


* * *

Reported MIC values follow for various molecules
Test system: Leptospira kirschneri serovar Grippotyphosa
Assay: Antimicrobial activity against Leptospira kirschneri serovar Grippotyphosa isolate 13 by broth microdilution method
Format: functional
Settings: Leptospira kirschneri, isolate 13; read-out: MIC
readout.name: MIC

[[record]]
structure_as_smiles = "COc1c(N2C[C@@H]3CCCN[C@@H]3C2)c(F)cc2c(=O)c(C(=O)O)cn(C3CC3)c12"
readout_name = "MIC"
result = "0.03 µg/mL"

[[record]]
structure_as_smiles = "O=C(O)c1cn(C2CC2)c2cc(N3CCNCC3)c(F)cc2c1=O"
readout_name = "MIC"
result = "0.03 µg/mL"

[[record]]
structure_as_smiles = "C[C@H]1c2cccc(O)c2C(=O)C2=C(O)[C@]3(O)C(=O)C(C(N)=O)=C(O)[C@@H](N(C)C)[C@@H]3[C@@H](O)[C@@H]21.O"
readout_name = "MIC"
result = "< 0.016 µg/mL"

[[record]]
structure_as_smiles = "CO/N=C(\\C(=O)N[C@@H]1C(=O)N2C(C(=O)O)=C(COC(C)=O)CS[C@H]12)c1csc(N)n1"
readout_name = "MIC"
result = "< 0.016 µg/mL"

[[record]]
structure_as_smiles = "CC1(C)S[C@@H]2[C@H](NC(=O)[C@H](N)c3ccccc3)C(=O)N2[C@H]1C(=O)O"
readout_name = "MIC"
result = "< 0.016 µg/mL"

[[record]]
structure_as_smiles = "CC[C@H]1OC(=O)[C@H](C)[C@@H](O[C@H]2C[C@@](C)(OC)[C@@H](O)[C@H](C)O2)[C@H](C)[C@@H](O[C@@H]2O[C@H](C)C[C@H](N(C)C)[C@H]2O)[C@](C)(OC)C[C@@H](C)C(=O)[C@H](C)[C@@H](O)[C@]1(C)O"
readout_name = "MIC"
result = "< 0.016 µg/mL"

